The entries below come with measured GI50 values attached.
System: MAIPA-CA-2
Test: SRB anti-proliferative assay, MAIPA-CA-2
Type: cell-based, Human
Details: Homo sapiens, read-out: GI50 MAIPA-CA-2

// below: answered compounds
>  <compound>
COc1ccc(C=Cc2cc(OC)c(OC)c(OC)c2)c(NC(=O)/C=C/c2cc(OC)c(OC)c(OC)c2)c1O [Compound 20ab]

>  <GI50>
64.5 µM

$$$$
>  <compound>
C#CCOc1cccc(/C=C/C(=O)Nc2c(C=Cc3cc(OC)c(OC)c(OC)c3)ccc(OC)c2O)c1 [Compound 20h]

>  <GI50>
> 100 µM

$$$$
>  <compound>
COc1ccc(C=Cc2cc(OC)c(OC)c(OC)c2)c(NC(=O)/C=C/c2ccc(C(F)(F)F)cc2)c1O [Compound 20n]

>  <GI50>
> 100 µM

$$$$
>  <compound>
COc1ccc(C=Cc2cc(OC)c(OC)c(OC)c2)c(NC(=O)/C=C/c2ccc(F)c(F)c2)c1O [Compound 20aa]

>  <GI50>
74 µM

$$$$
>  <compound>
COc1ccc(C=Cc2cc(OC)c(OC)c(OC)c2)c(NC(=O)/C=C/c2cccc(O)c2)c1O [Compound 20g]

>  <GI50>
0.098 µM

$$$$

input: What does the data say about its GI50? Entry: COc1ccc(C=Cc2cc(OC)c(OC)c(OC)c2)c(NC(=O)/C=C/c2ccc([N+](=O)[O-])cc2)c1O [Compound 20o]
output: 40.8 µM

----------
Tested on: DU-145
Experiment: SRB anti-proliferative assay, DU-145
Type: cell-based, Human
Conditions: Homo sapiens, DU-145, read-out: GI50 DU-145
The entries below come with measured log10 of GI50 values attached.
Please interpret these as log10 of GI50 where GI50 is in nM.

>  <compound>
COc1ccc(C=Cc2cc(OC)c(OC)c(OC)c2)c(NC(=O)/C=C/c2ccc(F)c(F)c2)c1O [Compound 20aa]

>  <tested_on>
DU-145

>  <assay_value>
1.65

$$$$

input: What does the data say about its log10 of GI50? Entry: COc1ccc(C=Cc2cc(OC)c(OC)c(OC)c2)c(NC(=O)/C=C/c2cc(OC)c(OC)c(OC)c2)c1O [Compound 20ab]
output: 1.98

input: What does the data say about its log10 of GI50? Entry: C#CCOc1cccc(/C=C/C(=O)Nc2c(C=Cc3cc(OC)c(OC)c(OC)c3)ccc(OC)c2O)c1 [Compound 20h]
output: 4.98

input: What does the data say about its log10 of GI50? Entry: COc1ccc(C=Cc2cc(OC)c(OC)c(OC)c2)c(NC(=O)/C=C/c2cccc(O)c2)c1O [Compound 20g]
output: 1.85

input: What does the data say about its log10 of GI50? Entry: COc1ccc(C=Cc2cc(OC)c(OC)c(OC)c2)c(NC(=O)/C=C/c2ccc([N+](=O)[O-])cc2)c1O [Compound 20o]
output: 1.93

----------
Tested on: K562
Assay: SRB anti-proliferative assay, K562
Assay type: cell-based, Human
Conditions: K562; Human leukemia; concentration of drug causing 50% inhibition of cell growth; read-out: GI50 K562
test_readout: GI50 (µM)
The reply should contain only the number, in µM.

>  <compound>
COc1ccc(C=Cc2cc(OC)c(OC)c(OC)c2)c(NC(=O)/C=C/c2ccc(F)cc2)c1O [Compound 20r]

>  <test_readout>
GI50

>  <assay_value>
23.5

$$$$
>  <compound>
COc1cc(/C=C/C(=O)Nc2c(C=Cc3cc(OC)c(OC)c(OC)c3)ccc(OC)c2O)ccc1[N+](=O)[O-] [Compound 20u]

>  <test_readout>
GI50

>  <assay_value>
0.096

$$$$

input: What does the data say about its GI50? Entry: COc1ccc(C=Cc2cc(OC)c(OC)c(OC)c2)c(NC(=O)/C=C/c2ccc(Cl)cc2)c1O [Compound 20q]
output: 24.9

input: What does the data say about its GI50? Entry: COc1cccc(/C=C/C(=O)Nc2c(C=Cc3cc(OC)c(OC)c(OC)c3)ccc(OC)c2O)c1 [Compound 20f]
output: 0.098
